measuredOn: HLA-A*1101 (human)
assayDetails: competition with 125I-labelled standard peptide for purified HLA, gel filtration
The following binders are listed with their measured binding affinity ratio (IC50 of standard peptide / IC50 of test peptide) values.
Number only, please.

- binder: "YAVCDKCLK (modifications not checked)"
  reportedValue: 0.001

[in] So what's the measured binding affinity ratio (IC50 of standard peptide / IC50 of test peptide) for this one? CVQSTHVDIR (modifications not checked) [HPV16 E7 peptide …]
[out] 0.0001

[in] So what's the measured binding affinity ratio (IC50 of standard peptide / IC50 of test peptide) for this one? CMSCCRSSR (modifications not checked)
[out] 0.0001

[in] So what's the measured binding affinity ratio (IC50 of standard peptide / IC50 of test peptide) for this one? DIILECVYCK (modifications not checked)
[out] 0.021
